Reference source for all entries: patent US20150322067A1

# Test system: A. baumanni NCTC 13304
# PROTOCOL_DETAILS: Agar dilution MIC (CLSI), beta-lactam with or without beta-lactamase inhibitor
# Type: cell-based
# CONDITION_INFO: Ceftazidime in combination with inhibitor at 4 mcg/ml; Class D ESBL strain
Record form. Attribute: MIC of Ceftazidime + inhibitor. Fill in for each entry.
A number alone suffices; assume µg/mL.

// fetch A. baumanni NCTC 13304 MIC of Ceftazidime + inhibitor for NC(=O)[C@@H]1CC[C@@H]2CN1C(=O)N2OS(=O)(=O)O
32

// fetch A. baumanni NCTC 13304 MIC of Ceftazidime + inhibitor for O=C(NC1CCNCC1)[C@@H]1CC[C@@H]2CN1C(=O)N2OS(=O)(=O)O
32

// fetch A. baumanni NCTC 13304 MIC of Ceftazidime + inhibitor for N#C[C@@H]1CC[C@@H]2CN1C(=O)N2OS(=O)(=O)[O-].[Na+]
32
